Give ABSOLUTE LYMPHOCYTE for every item shown.
# Species on record: Rattus norvegicus
# procedure-summary: DrugMatrix - Regimen: Daily Repeat
# Assay type: toxicity, organism-based, Sprague-Dawley
# Parameters: regimen Daily Repeat, gender Male, age 6-8 weeks
# conditions: in vivo, po, 10 mg/kg, 120 h, tissue Blood, route oral GAVAGE, dose level Low, time 5 day, vehicle .5 % CMC
Report the figure in CELLS/uL without appending any unit label.

Problem: Request the reported ABSOLUTE LYMPHOCYTE associated with CC(=O)O[C@]1(C(C)=O)CC[C@H]2[C@@H]3C=C(Cl)C4=CC(=O)CC[C@]4(C)[C@H]3CC[C@@]21C [CHLORMADINONE ACETATE]
Solution: 14416.33

Problem: // lookup ABSOLUTE LYMPHOCYTE for NS(=O)(=O)c1cc2c(cc1Cl)NCNS2(=O)=O [HYDROCHLOROTHIAZIDE]
Solution: 12129.67

Problem: For COc1c(C)c2c(c(O)c1C/C=C(\C)CCC(=O)OCCN1CCOCC1)C(=O)OC2 [MYCOPHENOLATE MOFETIL] , what is its reported ABSOLUTE LYMPHOCYTE?
Solution: 13218.67

Problem: // lookup ABSOLUTE LYMPHOCYTE for O=C1CN=C(c2ccccc2)c2cc([N+](=O)[O-])ccc2N1
Solution: 11358.67

====

# Species on record: Rattus norvegicus
# procedure-summary: DrugMatrix - Regimen: Daily Repeat
# Type: toxicity, organism-based, Sprague-Dawley
# Parameters: regimen Daily Repeat, gender Male, age 6-8 weeks
# conditions: in vivo, po, 1500 mg/kg, 120 h, tissue Plasma, route oral GAVAGE, dose level High, time 5 day, vehicle .5 % CMC
measurement-type: ALKALINE PHOSPHATASE

Problem: # lookup: ALKALINE PHOSPHATASE of NS(=O)(=O)c1cc2c(cc1Cl)NCNS2(=O)=O [HYDROCHLOROTHIAZIDE]
Solution: 393 u/L

Problem: Entry CCOC(=O)[C@H](CCc1ccccc1)N[C@@H](C)C(=O)N1[C@H](C(=O)O)C[C@@H]2CCC[C@@H]21 has what ALKALINE PHOSPHATASE?
Solution: 583.33 u/L

Problem: Param item = O=C1CCc2cc(OCCCCc3nnnn3C3CCCCC3)ccc2N1 [CILOSTAZOL] ; retrieve measured ALKALINE PHOSPHATASE.
Solution: 377 u/L

Problem: Recorded ALKALINE PHOSPHATASE of COC(=O)c1ccc(O)cc1 [METHYLPARABEN] , please.
Solution: 338.33 u/L

====

# Organism: Rattus norvegicus
# procedure-summary: DrugMatrix - Regimen: Daily Repeat
# Type: toxicity, organism-based, Sprague-Dawley
# Set-up: regimen Daily Repeat, gender Male, age 6-8 weeks
# conditions: in vivo, po, 10 mg/kg, 120 h, tissue Blood, route oral GAVAGE, dose level Low, time 5 day, vehicle .5 % CMC
measurement-type: NUCLEATED RED BLOOD CELLS

Problem: Endpoint output: NUCLEATED RED BLOOD CELLS of NS(=O)(=O)c1cc2c(cc1Cl)NCNS2(=O)=O [HYDROCHLOROTHIAZIDE] . Value?
Solution: 0 /100WBC

Problem: Form field: reported NUCLEATED RED BLOOD CELLS of O=C1CN=C(c2ccccc2)c2cc([N+](=O)[O-])ccc2N1
Solution: 0 /100WBC

Problem: Bench note: what NUCLEATED RED BLOOD CELLS did COc1c(C)c2c(c(O)c1C/C=C(\C)CCC(=O)OCCN1CCOCC1)C(=O)OC2 [MYCOPHENOLATE MOFETIL] show?
Solution: 0 /100WBC

Problem: So what does the record say about NUCLEATED RED BLOOD CELLS for CC(=O)O[C@]1(C(C)=O)CC[C@H]2[C@@H]3C=C(Cl)C4=CC(=O)CC[C@]4(C)[C@H]3CC[C@@]21C [CHLORMADINONE ACETATE] ?
Solution: 0 /100WBC

====

# Species on record: Rattus norvegicus
# procedure-summary: DrugMatrix - Regimen: Daily Repeat
# Type: toxicity, organism-based, Sprague-Dawley
# Set-up: regimen Daily Repeat, gender Male, age 6-8 weeks
# conditions: in vivo, po, 0 mg/kg, 120 h, tissue Plasma, route oral GAVAGE, dose level Control, time 5 day, vehicle .5 % CMC
What LACTATE DEHYDROGENASE was measured for each of the following?
Kindly answer with a numeric value in u/L, unit omitted.

Problem: Would you kindly share the measured LACTATE DEHYDROGENASE for CC(C)[C@H](N)C(=O)OCCOCn1cnc2c(=O)[nH]c(N)nc21 [VALACYCLOVIR] ?
Solution: 517.33

Problem: Bench note: what LACTATE DEHYDROGENASE did O=c1[nH]cc(F)c(=O)[nH]1 [FLUOROURACIL] show?
Solution: 108.67

Problem: Look at this compound and give its reported LACTATE DEHYDROGENASE. COC(=O)c1ccc(O)cc1 [METHYLPARABEN]
Solution: 90.5

Problem: Can you look up the measured LACTATE DEHYDROGENASE of Cc1c(-c2ccccc2)oc2c(C(=O)OCCN3CCCCC3)cccc2c1=O [FLAVOXATE] for me?
Solution: 146.5

Problem: Any idea what LACTATE DEHYDROGENASE was measured for CN1CCC[C@@H]1CCO[C@](C)(c1ccccc1)c1ccc(Cl)cc1 [CLEMASTINE] ?
Solution: 500.5

Problem: Field request: LACTATE DEHYDROGENASE | item: O=c1cc(-c2ccccc2)oc2c1ccc1ccccc12 [ALPHA-NAPHTHOFLAVONE]
Solution: 89.4

Problem: Any idea what its LACTATE DEHYDROGENASE is? The compound is CC(/C=C1\SC(=S)N(CC(=O)O)C1=O)=C\c1ccccc1
Solution: 500.5

Problem: Field request: LACTATE DEHYDROGENASE | item: COc1c(C)c2c(c(O)c1C/C=C(\C)CCC(=O)OCCN1CCOCC1)C(=O)OC2 [MYCOPHENOLATE MOFETIL]
Solution: 500.5

Problem: For the compound CCC[C@@H]1C[C@@H](C(=O)N[C@@H]([C@H]2O[C@H](SC)[C@H](O)[C@@H](O)[C@H]2O)[C@@H](C)O)N(C)C1 [LINCOMYCIN] , what LACTATE DEHYDROGENASE is on record?
Solution: 153.67

====

For each of the molecules below, state its HEMATOCRIT.
# Species: Rattus norvegicus
# procedure-summary: DrugMatrix - Regimen: Daily Repeat
# Format: toxicity, organism-based, Sprague-Dawley
# Design: regimen Daily Repeat, gender Male, age 6-8 weeks
# conditions: in vivo, po, 0 mg/kg, 72 h, tissue Blood, route oral GAVAGE, dose level Control, time 3 day, vehicle .5 % CMC
Give the value in % but do not write % after it.

Problem: Which HEMATOCRIT value is on record for CCc1ccc(C(=O)C(C)CN2CCCCC2)cc1 (centres undefined) [EPERISONE] ?
Solution: 34.05

Problem: Given the entry C[C@]12CCC(=O)C=C1CC[C@@H]1[C@@H]2C(=O)C[C@@]2(C)[C@H]1CC[C@]2(O)C(=O)CO [CORTISONE] , report its measured HEMATOCRIT.
Solution: 44.65

Problem: Quick check: HEMATOCRIT of CN1C(C(=O)Nc2ccccn2)=C(O)c2ccccc2S1(=O)=O [PIROXICAM] ?
Solution: 38.8

Problem: HEMATOCRIT for Brc1ccccc1 [BROMOBENZENE] ?
Solution: 34.7

Problem: Fill blank: measured HEMATOCRIT of the molecule CN1CCC[C@@H]1CCO[C@](C)(c1ccccc1)c1ccc(Cl)cc1 [CLEMASTINE] is ____.
Solution: 35.45

Problem: Bench note: what HEMATOCRIT did CC[C@H]1OC(=O)[C@H](C)[C@@H](O[C@H]2C[C@@](C)(OC)[C@@H](O)[C@H](C)O2)[C@H](C)[C@@H](O[C@@H]2O[C@H](C)C[C@H](N(C)C)[C@H]2O)[C@](C)(O)C[C@@H](C)/C(=N\OCOCCOC)[C@H](C)[C@@H](O)[C@]1(C)O [ROXITHROMYCIN] show?
Solution: 44.65

Problem: Give the measured HEMATOCRIT of CC(/C=C1\SC(=S)N(CC(=O)O)C1=O)=C\c1ccccc1 .
Solution: 35.45

Problem: Field request: HEMATOCRIT | item: O=C1CCc2cc(OCCCCc3nnnn3C3CCCCC3)ccc2N1 [CILOSTAZOL]
Solution: 45.44

Problem: # get_value(readout='HEMATOCRIT', item= CC1(C)[C@H]2CC[C@]1(C)C(=O)C2 [(-)-CAMPHOR] )
Solution: 36.52

Problem: // query HEMATOCRIT value for entry CCOC(=O)OC(C)OC1=C(C(=O)Nc2ccccn2)N(C)S(=O)(=O)c2ccccc21 (centres undefined) [AMPIROXICAM]
Solution: 34.7

Problem: For the molecule O=c1[nH]cc(F)c(=O)[nH]1 [FLUOROURACIL] , what HEMATOCRIT is on record?
Solution: 33.53

Problem: Bench note: what HEMATOCRIT did COC(=O)c1ccc(O)cc1 [METHYLPARABEN] show?
Solution: 35.58

Problem: Give the measured HEMATOCRIT of CC(C)[C@H](N)C(=O)OCCOCn1cnc2c(=O)[nH]c(N)nc21 [VALACYCLOVIR] .
Solution: 34.75

Problem: What measured HEMATOCRIT goes with Cc1c(-c2ccccc2)oc2c(C(=O)OCCN3CCCCC3)cccc2c1=O [FLAVOXATE] ?
Solution: 34.32
